settings: 298.15 K; 101.33 kPa; Liquid; Pycnometric method
result_type: mass density (kg/m3)

compound	mass density [kg/m3]
COCCOC [1,2-dimethoxyethane]	860.4
CCC(C)=O [butanone]	799.7
COCCO [2-methoxyethan-1-ol]	960.1
CCC(C)OC(C)=O (centres undefined) [1-methylpropyl ethanoate]	863.8

----------
assay: refractive index (Na D-line) (dimensionless); settings: 298.15 K; 101.33 kPa; Liquid; Standard Abbe refractometry
result_type: refractive index

molecule	refractive index
COCCOC	1.378
CCC(C)OC(C)=O (centres undefined) [1-methylpropyl ethanoate]	1.3872
CCC(C)=O	1.3761
COCCO	1.4002
